# Assay Text: in vivo
# Experimental Parameters: mouse, oral, mice died within a week, probit method
# Method: ddY male mice (body weight about 23 g) were fasted overnight, and the test compound dissolved or suspended in a 1% gum arabic solution administered orally. From the number of mice died within a week, the LD50 value was calculated by the probit method.
# reported LD50 at 168 h; entries follow

Some solved entries appear below for comparison.
| Compound | LD50 at 168 h |
| --- | --- |
| CC(=O)Oc1cccc2sc(-c3ccc(C)cc3)nc12 [Example 5] | > 3000 mg/kg |
| CC(=O)Oc1cccc2sc(-c3ccc(C(=O)O)cc3)nc12 [Example 7] | 2020 mg/kg |
| COc1ccc(-c2nc3c(OC(C)=O)cccc3s2)cc1 [Example 6] | > 3000 mg/kg |

Query: Using the record for COC(=O)c1ccc(-c2nc3c(OC(C)=O)cccc3s2)cc1 [Example 8] , report its LD50 at 168 h.
Reply: > 3000 mg/kg

====

# Test system: rat adjuvant arthritis
# Assay Text: Effect on the Development of Adjuvant Arthritis
# Assay type: in vivo, Fischer male rats
# Experimental Parameters: Rattus norvegicus, 504 h; 100 mg/kg, oral, 21 days after adjuvant, mean ± standard error; read-out: Paw edema inhibition, Non-treated paw
Quantity Kind: inhibition in vivo at 100 mg/kg (%)
All answers are understood in %, so give the number only.

Below are worked cases with known answers.
| Compound | Quantity Kind | Unit Of Measurement | Test Value |
| --- | --- | --- | --- |
| CC(=O)Oc1ccc2sc(-c3ccc(C)cc3)nc2c1 [A] | inhibition in vivo at 100 mg/kg | % | 4.5 |
| CC(=O)Oc1ccc2nc(-c3ccc(C)cc3)sc2c1 [B] | inhibition in vivo at 100 mg/kg | % | 4.4 |
| CC(=O)Oc1cccc2nc(-c3ccc(C)cc3)sc12 [C] | inhibition in vivo at 100 mg/kg | % | 8.9 |
| O=C([O-])c1ccccc1Nc1cc(Cl)ccc1C(=O)[O-].[Na+].[Na+] [Lobenzarit disodium] | inhibition in vivo at 100 mg/kg | % | -1.7 |

Query: inhibition in vivo at 100 mg/kg lookup needed for COc1ccc(-c2nc3c(OC(C)=O)cccc3s2)cc1 [Example 6] , thanks.
Reply: 27.4

Query: Need inhibition in vivo at 100 mg/kg of CC(=O)Oc1cccc2sc(-c3ccc(C(=O)O)cc3)nc12 [Example 7] , thanks.
Reply: 38.5

Query: What inhibition in vivo at 100 mg/kg value was documented for this compound, CC(=O)Oc1cccc2sc(-c3ccc(C)cc3)nc12 [Example 5] ?
Reply: 32

Query: Entry COC(=O)c1ccc(-c2nc3c(OC(C)=O)cccc3s2)cc1 [Example 8] has what inhibition in vivo at 100 mg/kg?
Reply: 28.6
